Experiment: Scavenging test of DPPH free radical
Type: biochemical
Settings: DPPH free radical scavenging; read-out: SC50 (the source's name)
Procedure: DPPH (1,1-diphenyl-2-picrylhydrazyl) was used as a source of free radicals to examine the scavenging efficiency of the caffeamide derivatives prepared in Example 1 on free radicals. […] The mixtures were placed in the dark at room temperature for 30 minutes and its absorbance at 517 nm was measured by an enzyme immunoassay analyzer. […] Scavenging efficiency(%)=[the absorbance of the control group−the absorbance of the experimental group/the absorbance of the control group]×100%.
observationType: EC50 (µM)
Please state the figure in µM; there is no need to write the unit.

# structureString, observationType, quantitativeResult
data = [
    ("O=C(C=Cc1ccc(O)c(O)c1)NCCc1ccccc1", "EC50", 22.1),
]

Turning now to a further record.
Qu. Requested field: EC50. Item: O=C(C=Cc1ccc(O)c(O)c1)NCCc1ccc(Br)cc1
Ans. 20
